# System Tested: UniProt:Q8TDV5
# Measurement Protocol: Functional cellular assay measuring GPR119-mediated cAMP release (HTRF) in HEK-293 cells stably expressing recombinant human GPR119
# Measurement Conditions: cAMP response, cell line expressing human GPR119, 30 minutes at room temperature
Measured Metric: EC50 (nM)
# unit: nM | format: bare number

// EC50 lookup, compound = CN(C)C(=O)CN1Cc2c(F)cc(N3CC[C@@H](Oc4ccc(OCC5CC5)nc4)C3=O)cc2C1=O [Example 4-25] , result: 80

Entry CN(C)C(=O)CN1Cc2ccc(N3CC[C@@H](Oc4ccc(C(=O)c5ccc(F)cc5)nc4)C3=O)cc2C1=O [Example 2-61] , EC50 reported as 106

Looking up CS(=O)(=O)CN1Cc2ncc(N3CC[C@@H](Oc4ccc(Oc5ccc(F)cc5)nc4)C3=O)cc2C1=O [Example 1-66] , I found its EC50 recorded as 163

* * *

# System Tested: human GPR119 (Homo sapiens, UniProt Q8TDV5)
# Construct: expressed in transfected cells
# Sequence (Q8TDV5 whole entry): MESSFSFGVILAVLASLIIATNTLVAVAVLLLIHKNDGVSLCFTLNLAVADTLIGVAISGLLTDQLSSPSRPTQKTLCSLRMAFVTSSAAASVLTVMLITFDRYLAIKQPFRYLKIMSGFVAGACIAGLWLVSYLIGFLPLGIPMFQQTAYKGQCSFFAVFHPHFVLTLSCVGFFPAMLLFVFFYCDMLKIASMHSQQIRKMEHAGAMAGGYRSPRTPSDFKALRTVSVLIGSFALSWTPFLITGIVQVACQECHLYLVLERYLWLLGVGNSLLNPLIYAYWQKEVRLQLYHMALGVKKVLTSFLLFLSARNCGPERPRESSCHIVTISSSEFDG
# Measurement Protocol: Functional cellular assay measuring GPR119-mediated cAMP release (HTRF) in HEK-293 cells stably expressing recombinant human GPR119
# Format: cell-based
# Measurement Conditions: cAMP response, cell line expressing human GPR119, 30 minutes at room temperature
Measured Metric: pEC50
Bear in mind: pEC50 is minus log10 of a mol/L concentration; give just that figure.

For reference, reported pEC50 for CN(C)C(=O)CN1Cc2ncc(N3CC[C@@H](Oc4ccc(OCC5CC5)nc4)C3=O)cc2C1=O [Example 1-11] stands at 6.69

# pEC50 (compound: CN1C(=O)c2cc(N3CC[C@@H](Oc4ccc(OCC5CC5)nc4)C3=O)ccc2C1CC(=O)O (some centres unmarked) [Example 1-03] ) is 4.96

pEC50 for COC(=O)C(C)N1Cc2ccc(N3CC[C@@H](Oc4ccc(OCC5CC5)nc4)C3=O)cc2C1=O (some centres unmarked) [Example 1-04] is 6.27

Recorded result, O=C(CN1Cc2ccc(N3CC[C@@H](Oc4ccc(OCC5CC5)nc4)C3=O)cc2C1=O)NCc1nnn[nH]1 [Example 4-30] , pEC50: 6.13

Input CN(C)C(=O)CN1Cc2ccc(N3CC[C@@H](Oc4ccc(F)cc4)C3=O)cc2C1=O [Example 2-09] . Output pEC50: 6.13

Reported pEC50 ( C[S+]([O-])CN1Cc2ccc(N3CC[C@@H](Oc4ccc(C(=O)C5CC5)nc4)C3=O)cc2C1=O (some centres unmarked) [Example 1-58] ) = 6.17

Lab book: pEC50 of CN(C)C(=O)Cn1c(=O)c2cc(N3CC[C@@H](Oc4ccc(OCC5CC5)nc4)C3=O)ccc2n1C [Example 1-27] noted as 6.31

Sample NC(=O)CN1Cc2ccc(N3CC[C@@H](Oc4ccc(C(=O)c5ccc(F)cc5)cc4)C3=O)cc2C1=O [Example 2-50] ; pEC50 observed: 6.99

* * *

Can you tell me pEC50 for the items I'm about to list?
# System Tested: human GPR119 (Homo sapiens)
# Measurement Protocol: Functional cellular assay measuring GPR119-mediated cAMP release (HTRF) in HEK-293 cells stably expressing recombinant human GPR119
# Measurement Conditions: cAMP response, cell line expressing human GPR119, 30 minutes at room temperature
// field semantics: pEC50 = negative decimal log of concentration (mol/L)

molecule CN(C)C(=O)CN1Cc2ccc(N3CC[C@@H](Oc4ccc(-c5cnco5)cc4)C3=O)cc2C1=O [Example 2-37] , pEC50 observed: 6.06

According to the records, this molecule CN(C)C(=O)C1NC(=O)c2cc(N3CC[C@@H](Oc4ccc(OCC5CC5)nc4)C3=O)ccc2N1C (single isomer, unassigned) [Example 1-41] displays pEC50 of 5.69

For CN(C)C(=O)CN1Cc2ccc(N3CC[C@@H](Oc4ccc(N5CCOCC5)cc4)C3=O)cc2C1=O [Example 2-24] the molecule record lists pEC50 as 4.68

CN(C)C(=O)CN1Cc2ccc(N3CC[C@@H](Oc4ccc(O[C@H]5C[C@@H]6C[C@@H]6C5)nc4)C3=O)cc2C1=O [Example 2-03] has a reported pEC50 of 7.27

In plain terms, O=C(CN1Cc2ccc(N3CC[C@@H](Oc4ccc(OCC5CC5)nc4)C3=O)cc2C1=O)N1CCCC1 [Example 4-01] has a documented pEC50 of 6.97

// field: pEC50; key: O=C(CN1Cc2ccc(N3CC[C@@H](Oc4ccc(OCC5CC5)nc4)C3=O)cc2C1=O)NC1CC1 [Example 4-08] ; value = 6.77
